Biological target: T1, recombinant human IL-23R/Fc chimera (R&D Systems) (human, UniProt Q5VWK5 24-355)
T1 construct: Bought; also called rhIL23RFc
T1 sequence (looked up): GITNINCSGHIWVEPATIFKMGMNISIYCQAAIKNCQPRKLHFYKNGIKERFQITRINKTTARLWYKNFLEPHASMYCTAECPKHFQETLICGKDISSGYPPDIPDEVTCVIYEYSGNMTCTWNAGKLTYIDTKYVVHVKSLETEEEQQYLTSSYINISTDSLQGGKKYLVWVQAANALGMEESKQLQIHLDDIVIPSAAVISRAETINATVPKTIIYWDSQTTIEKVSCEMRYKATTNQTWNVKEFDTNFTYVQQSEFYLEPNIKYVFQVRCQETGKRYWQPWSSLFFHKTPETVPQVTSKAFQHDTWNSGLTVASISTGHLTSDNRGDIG
Experiment: SPR
Experimental readout: pKd
FYI, pKd means -log10 of a concentration in mol per litre.

Example results:
1) 105-08-2F6 ATRIMER complex (designed binder) EPPTQKPKKIVNAKKDVVNTKMFEELKSRLDTLAQEVALLKEQQALQTVCLKGTKVHMKCFLAFTQTKTFHEASEDCISRGGTLSTPQTGSENDALYEYLRQSVGNEAEIWLGLNGSAYTNTWVDMTGARIAYKNWETEITAQPDGGFGYFGENCAVLSGAANGKWFDKRCRDQLPYICQFGIV    9.19
2) 056-53.H7H ATRIMER complex (designed binder, Homotrimer of this chain (ATRIMER complex)., not shown: A possible extra N-terminal Ser from the ompA junction is left out) EPPTQKPKKIVNAKKDVVNTKMFEELKSRLDTLAQEVALLKEQQALQTVCLKGTKVHMKCFLAFTQTKTFHEASEDCISRGGTLSTPQTGSENDALYEYLRQSVGNEAEIWLGLNGSSVSDVWVDMTGARIAYKNWETEITAQPDGGFGYFGENCAVLSGAANGKWFDKRCRDQLPYICQFGIV    8.82

Turning to the following binder.
Challenge: # return recorded pKd for input 001-87.A5F monomeric CTLD (designed binder, not shown: small tags and cut ends, C-terminal tag not specified) ALQTVCLKGTKVHMKCFLAFTQTKTFHEASEDCISRGGTLSTPQTGSENDALYEYLRQSVGNEAEIWLGLNGSVRSATWVDMTGARIAYKNWETEITAQPDGGFGYFGENCAVLSGAANGKWFDKRCRDQLPYICQFGIV
Response given: 7.61
